Just for reference, patent US20130136794A1 is where these values come from.

- Tested on: MDA-MB-468 (cell line of EGFR over-expression)
- EXPERIMENT_SUMMARY: MTT assay on EGFR over-expressing cell line (72 h)
- Type: cell-based
- TEST_CONTEXT: Homo sapiens; MDA-MB-468 cells, MTT, 72 h; read-out: MDA-MB-468 (μM), EC50
REPORTED_PROPERTY: EC50 (µM)

CCCCOC(=O)CCSC(=S)NCc1cccnc1
12.8

(A) [O-][S+](CCSC(=S)NCc1cccnc1)Cc1ccccc1 (stereo not drawn)
(B) N#CCCSC(=S)NCc1cccnc1
Between A and B , which one shows the larger EC50 value? Indicate which entry you chose by stating its label.
B
(B: 9.54 µM, A: 0.953 µM)

* * *

- Tested on: Bel-7402 cells
- EXPERIMENT_SUMMARY: EC50 on proliferation of Bel7402 cells (SRB, 48 h)
- Format: cell-based
- TEST_CONTEXT: Homo sapiens, read-out: Bel7402 EC50 (nmol)
pEC50: −log10 of the molar value.
REPORTED_PROPERTY: pEC50

Solved entries (count: 3):
N#CCCSC(=S)NC(c1ccccc1)c1cccnc1 (stereo not drawn) [Compound 31]
6.63
CN1CCOC2C=C(CNC(=S)SCCC#N)C=NC21 (stereo not drawn) [Compound 26]
7.02
N#CCCSC(=S)NCc1ccc(Oc2ccccc2)nc1 [Compound 27]
7.31

(A) COc1ncccc1CNC(=S)SCCC#N [Compound 20]
(B) CC(C)(C)C(=O)Nc1ccncc1CNC(=S)SCCC#N [Compound 17]
Between A and B , which one shows the larger pEC50 value? Indicate which entry you chose by stating its label.
A

* * *

REPORTED_PROPERTY: melting point

Solved entries (count: 4):
COC(=O)c1ccc(CNC(=S)SCCC#N)cn1 [Compound 21]
106 to 112 °C
COc1ncccc1CNC(=S)SCCC#N [Compound 20]
88 to 92 °C
CC1=CSC(=S)N(Cc2ccco2)C1(C)O (stereo not drawn) [Compound 4]
88 to 89 °C
CN1CCOC2C=C(CNC(=S)SCCC#N)C=NC21 (stereo not drawn) [Compound 26]
117 to 118 °C

Input CC(C)(C)C(=O)Nc1ccncc1CNC(=S)SCCC#N [Compound 17] . Output melting point: 122 to 124 °C

Input N#CCCSC(=S)NC(c1ccccc1)c1cccnc1 (stereo not drawn) [Compound 31] . Output melting point: 118 to 120 °C

* * *

- Test system: human leukaemia HL-60 cells
- EXPERIMENT_SUMMARY: EC50 on proliferation of HL-60 cells (MTT, 48 h)
- Assay type: cell-based
- TEST_CONTEXT: read-out: HL-60 EC50 (nmol)
REPORTED_PROPERTY: EC50 (nM)

Solved entries (count: 3):
N#CCCSC(=S)NCc1ccncc1
56.5
Cc1c(CNC(=S)SCCC#N)cnn1-c1ccccc1
6.05
N#CCCSC(=S)NCc1ccc[nH]1
282

(P) N#CCCSC(=S)NCCc1cccnc1
(Q) N#CCCSC(=S)NCc1ccc(Oc2ccccc2)nc1
(R) Cc1nc(-c2ccccc2)oc1CNC(=S)SCCC#N
(S) N#CCCSC(=S)NCc1ccc(-c2ccco2)nc1
(T) CCCCOC(=O)CCSC(=S)NCc1cccnc1
Rank by EC50 (largest to smallest). Order the labels as requested and give them as your answer.
T, R, S, P, Q

* * *

- Tested on: human leukaemia HL-60 cells
- EXPERIMENT_SUMMARY: EC50 on proliferation of HL-60 cells (MTT, 48 h)
- Assay type: cell-based
- TEST_CONTEXT: read-out: HL-60 EC50 (nmol)
pEC50: −log10 of the molar value.
REPORTED_PROPERTY: pEC50

(I) COc1ccc(CNC(=S)SCCC#N)cn1 [Compound 33]
(II) CN1CCOC2C=C(CNC(=S)SCCC#N)C=NC21 (centres unmarked) [Compound 26]
Kindly compare I with II and tell me which has the lower pEC50 figure. Indicate which entry you chose by stating its label.
II

* * *

- Test system: Bel-7402 cells
- EXPERIMENT_SUMMARY: EC50 on proliferation of Bel7402 cells (SRB, 48 h)
- Format: cell-based
- TEST_CONTEXT: Homo sapiens, read-out: Bel7402 EC50 (nmol)
REPORTED_PROPERTY: EC50 (nM)

Solved entries (count: 8):
CC(NC(=S)SCCC#N)c1cccnc1 (stereo not shown) [Compound 32]
64.8
N#CCCSC(=S)NCc1cnc(N2CCOCC2)nc1 [Compound 41]
22.4
N#CCCSC(=S)NCc1cccnc1 [Compound 11]
27.2
COC(=O)c1ccc(CNC(=S)SCCC#N)cn1 [Compound 21]
116
COc1ccc(CNC(=S)SCCC#N)cn1 [Compound 33]
109
N#CCCSC(=S)NCCCc1cccnc1 [Compound 42]
3.48
N#CCCSC(=S)NCc1nnc(-c2ccccc2)s1 [Compound 45]
18.6
N#CCCSC(=S)NCc1cncc(Br)c1 [Compound 24]
20.5

(a) N#CCCSC(=S)NCc1nnc(-c2ccccc2)o1 [Compound 40]
(b) Cc1nc(-c2ccccc2)oc1CNC(=S)SCCC#N [Compound 34]
Kindly compare a with b and tell me which has the lower EC50 figure. Indicate which entry you chose by stating its label.
b
(b: 17.9 nM, a: 25.7 nM)

* * *

- Tested on: human leukaemia HL-60 cells
- EXPERIMENT_SUMMARY: EC50 on proliferation of HL-60 cells (MTT, 48 h)
- Type: cell-based
- TEST_CONTEXT: read-out: HL-60 EC50 (nmol)
pEC50: −log10 of the molar value.
REPORTED_PROPERTY: pEC50

Solved entries (count: 6):
N#CCCSC(=S)NCc1cccnc1
8.84
COc1ncccc1CNC(=S)SCCC#N
9.10
N#CCCSC(=S)NCCCc1cccnc1
8.32
N#CCCSC(=S)NCc1nccs1
6.96
CC(NC(=S)SCCC#N)c1cccnc1 (stereo not drawn)
8.48
N#CCCSC(=S)NCc1cnc(N2CCOCC2)nc1
8.30

(P) N#CCCSC(=S)NC(c1ccccc1)c1cccnc1 (stereo not drawn)
(Q) COc1cncc(CNC(=S)SCCC#N)c1
Between P and Q , which one shows the larger pEC50 value? Indicate which entry you chose by stating its label.
Q
